Target: T1, human PTHrP (1-34) (human)
T1 construct: Synthetic peptide (Peninsula; Peptide Research Institute), coated on ELISA plates at 1 ug/ml; added at 1 ng/ml final in the cAMP assay; also called parathyroid hormone related peptide (1-34)
Assay: ELISA, plate coated with human PTHrP (1-34)
metric: binding result

* humanized #23-57-137-1 antibody having L-chain version "r" (antibody, V domains shown, Humanized H-chain version a with human Cgamma1; human lambda C-region; COS-7 expressed (also CHO); also called hMBC1HcDNA/pCOS1 and hMBC1Lrλ/pCOS1) VH: QVQLVESGGGVVQPGRSLRLSCAASGFTFSSYGMSWVRQAPGKGLEWVATISSGGSYTYYPDSVKGRFTISRDNSKNTLYLQMNSLRAEDTAVYYCARQTTMTYFAYWGQGTLVTVSS VL: QLVLTQSPSASASLGASVKLTCTLSSQHSTYTIEWYQQQPEKGPRYLMDLKQDGSHSTGDGIPDRFSGSSSGAERYLTISSLQSEDEADYICGVGDTIKEQFVYVFGGGTKLTVLG | binds
* humanized #23-57-137-1 antibody having L-chain version "m" (antibody, V domains shown, Humanized H-chain version a with human Cgamma1; human lambda C-region; COS-7 expressed; also called hMBC1HcDNA/pCOS1 and hMBC1Lmλ/pCOS1) VH: QVQLVESGGGVVQPGRSLRLSCAASGFTFSSYGMSWVRQAPGKGLEWVATISSGGSYTYYPDSVKGRFTISRDNSKNTLYLQMNSLRAEDTAVYYCARQTTMTYFAYWGQGTLVTVSS VL: QLVLTQSPSASASLGASVKLTCTLSSQHSTYTIEWYQQQPEKGPRYLMDLKQDGSHSTGDGIPDRFSGSSSGAERYLTISSLQSEDEADYYCGVGDTIKEQFVYVFGGGTKLTVLG | binds
* humanized #23-57-137-1 antibody having L-chain version "l" (antibody, V domains shown, Humanized H-chain version a with human Cgamma1; human lambda C-region; COS-7 expressed; also called hMBC1HcDNA/pCOS1 and hMBC1Llλ/pCOS1) VH: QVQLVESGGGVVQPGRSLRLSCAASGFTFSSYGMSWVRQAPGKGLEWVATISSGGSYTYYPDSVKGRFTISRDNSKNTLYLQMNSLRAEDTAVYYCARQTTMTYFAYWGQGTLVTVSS VL: QLVLTQSPSASASLGASVKLTCTLSSQHSTYTIEWYQQQPEKGPKYVMDLKQDGSHSTGDGIPDRFSGSSSGAERYLTISSLQSEDEADYYCGVGDTIKEQFVYVFGGGTKLTVLG | binds

Source listed as patent US20030049211A1.
